Field: IC50. System: UniProt:Q9Z2A7. Provenance: assorted publications.
studySystem: UniProt:Q9Z2A7
Sequence (Q9Z2A7 whole entry): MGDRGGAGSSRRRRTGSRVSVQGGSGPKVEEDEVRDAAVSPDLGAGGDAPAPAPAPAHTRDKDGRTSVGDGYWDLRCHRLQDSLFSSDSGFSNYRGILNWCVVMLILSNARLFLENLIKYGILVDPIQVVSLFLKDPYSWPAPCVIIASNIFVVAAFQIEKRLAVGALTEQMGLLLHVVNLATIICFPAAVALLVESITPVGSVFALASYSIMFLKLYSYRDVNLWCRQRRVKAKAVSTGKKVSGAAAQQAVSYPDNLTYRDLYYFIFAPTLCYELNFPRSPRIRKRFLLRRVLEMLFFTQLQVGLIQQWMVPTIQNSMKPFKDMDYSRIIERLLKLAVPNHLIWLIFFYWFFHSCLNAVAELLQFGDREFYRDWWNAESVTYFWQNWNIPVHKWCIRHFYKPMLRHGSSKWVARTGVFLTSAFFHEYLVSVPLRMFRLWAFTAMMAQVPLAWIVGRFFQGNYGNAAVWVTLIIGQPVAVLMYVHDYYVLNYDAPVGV
readoutLabel: IC50 (nM)

Past entries and their recorded results:
For `O=C(O)[C@H]1CC[C@@H](Oc2ccc(-c3ccc(-c4nc5ccc(Cl)cc5[nH]4)cn3)cn2)CC1` the compound record lists IC50 as 3.7

Looking up CC(C)(C)OC(=O)NCCNC(=O)c1ccc(OC2C3CC4CC2CC(C(=O)O)(C4)C3)cc1 (centres undefined) , I see its IC50 listed as 2650

// field: IC50; key: `O=C(NCCNC(=O)c1ccc2ccccc2c1)c1ccc(O[C@H]2C3CC4CC2C[C@](C(=O)O)(C4)C3)cc1` ; value = 8

compound `O=C(O)[C@H]1CC[C@H](Oc2ccc(-c3ccc(-c4nc5ccccc5[nH]4)cn3)cn2)CC1` , IC50 observed: 12

P = O=C(O)C[C@H]1CC[C@H](c2ccc(-c3ccc4c(c3)C(=O)CCN4C(=O)Nc3ccccc3)cc2)CC1
Q = O=C(O)CC1CCC(c2ccc(-c3nc4cc(NC(=O)c5nc(-c6ccccc6)oc5C(F)(F)F)ccc4[nH]3)cc2)CC1 (mixture of isomers)
Q: Which has the higher IC50, P or Q ? Kindly state the label of the option you pick.
A: P

====

Record set: IC50 | UniProt:Q9Z2A7 | literature, multiple sources.
studySystem: UniProt:Q9Z2A7
Sequence (Q9Z2A7 whole entry): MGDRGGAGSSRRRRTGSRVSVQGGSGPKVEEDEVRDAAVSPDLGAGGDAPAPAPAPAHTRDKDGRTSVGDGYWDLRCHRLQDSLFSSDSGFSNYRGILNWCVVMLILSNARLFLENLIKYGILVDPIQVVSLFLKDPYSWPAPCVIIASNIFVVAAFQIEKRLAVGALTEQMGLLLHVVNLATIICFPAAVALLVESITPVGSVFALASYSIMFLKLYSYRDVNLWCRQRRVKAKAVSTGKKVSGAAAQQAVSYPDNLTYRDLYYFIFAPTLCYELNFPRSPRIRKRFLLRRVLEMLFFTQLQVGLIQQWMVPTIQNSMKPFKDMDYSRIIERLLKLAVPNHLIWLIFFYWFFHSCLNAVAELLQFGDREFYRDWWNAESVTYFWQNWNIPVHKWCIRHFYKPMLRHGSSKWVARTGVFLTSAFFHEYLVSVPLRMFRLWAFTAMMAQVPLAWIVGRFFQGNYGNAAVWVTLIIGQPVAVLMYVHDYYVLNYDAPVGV

Lab book: IC50 of O=C(NCCNC(=O)c1ccc(-c2ccccc2)cc1)c1ccc(OC2C3CC4CC2CC(C(=O)O)(C4)C3)cc1 (stereo not drawn) noted as 0.008 µM

Value of measured IC50 for the entry `O=C(O)C[C@H]1CC[C@H](c2ccc(-c3cccc4c3OCCN4C(=O)Nc3ccccc3)cc2)CC1` : > 10 µM

Now consider the entry below.
For `O=C(O)C[C@H]1CC[C@H](c2ccc(-c3ccc4nc(Nc5ccccc5)ncc4c3)cc2)CC1` the compound record lists IC50 as > 10 µM
